Assay: Thermal stability of compounds at 60° C. (HPLC content of raw material and 2% premix)
Format: physicochemical
Conditions: 2% premix, Day 5, relative to Day 0
Readout Label: Detection result of the content of test sample (%) Day 5
Give your result in % as a bare value.

Reference set (2 entries):
# Compound, Measured
data = [
    ("NC(=O)NC(CC(=O)[O-])C(=O)[O-].[Zn+2] (racemic) [Compound 5, Zinc N-carbamoyl-DL-aspartate]", 96.89),
    ("NC(=O)NC(CC(=O)[O-])C(=O)[O-].[Na+].[Na+] (racemic) [Compound 3, Sodium N-carbamoyl-DL-aspartate]", 99.33),
]

# ---- query compound ----
Form field Detection result of the content of test sample (%) Day 5, entry NC(=O)NC(CC(=O)[O-])C(=O)[O-].[Fe+2] (racemic) [Compound 7, Iron N-carbamoyl-DL-aspartate] : 96.74

* * *

Listed here: items and their measured Detection result of the content of test sample (%) Day 10.
Experiment: Thermal stability of compounds at 60° C. (HPLC content of raw material and 2% premix)
Type: physicochemical
Conditions: 2% premix, Day 10, relative to Day 0
Give your result in % as a bare value.

Reference set (3 entries):
# Compound, Measured
rows = [
    ("CCOC(=O)CC(NC(N)=O)C(=O)OCC (racemic) [Compound 2, diethyl N-carbamoyl-DL-aspartate]", 98.09),
    ("NCCCCCCCCCC(=O)NC(CC(=O)O)C(=O)O (racemic)", 97.81),
    ("NC(=O)NC(CC(=O)[O-])C(=O)[O-].[Ca+2] (racemic) [Compound 4, Calcium N-carbamoyl-DL-aspartate]", 97.99),
]

Form field Detection result of the content of test sample (%) Day 10, entry NCCCC(=O)NC(CC(=O)O)C(=O)O (racemic) : 97.68

Form field Detection result of the content of test sample (%) Day 10, entry NC(=O)NC(CC(=O)[O-])C(=O)[O-].[Cu+2] (racemic) [Compound 6, Copper N-carbamoyl-DL-aspartate] : 97.94

Form field Detection result of the content of test sample (%) Day 10, entry NCC(=O)NC(CC(=O)O)C(=O)O (racemic) : 97.32

Form field Detection result of the content of test sample (%) Day 10, entry NC(=O)NC(CC(=O)[O-])C(=O)[O-].[Zn+2] (racemic) [Compound 5, Zinc N-carbamoyl-DL-aspartate] : 96.36

* * *

Listed here: items and their measured EW (g).
Tested on: laying hens
Experiment: Breeding test: production performance of laying hens
Assay type: in vivo, Jingbai laying hens
Conditions: 500 ppm in basal daily ration, 158 days
Marks after values point to notes of the source that are not given here.

Reference set (5 entries):
# Compound, System, Readout Label, Measured
measured = [
    ("NCCCCCCCCCC(=O)NC(CC(=O)O)C(=O)O (racemic)", "laying hens", "EW (g)", "57.45 ± 0.47^c g"),
    ("NCCCCCCCCCCCCCC(=O)NC(CC(=O)O)C(=O)O (racemic)", "laying hens", "EW (g)", "55.45 ± 0.35^b g"),
    ("NCCCC(=O)NC(CC(=O)O)C(=O)O (racemic)", "laying hens", "EW (g)", "55.44 ± 0.37^b g"),
    ("NCC(=O)NC(CC(=O)O)C(=O)O (racemic)", "laying hens", "EW (g)", "54.98 ± 0.39^a g"),
    ("NC(=O)NC(CC(=O)O)C(=O)O (racemic)", "laying hens", "EW (g)", "55.49 ± 0.38^b g"),
]

# ---- query compound ----
Form field EW (g), entry CCOC(=O)CC(NC(N)=O)C(=O)OCC (racemic) [Compound 2, diethyl N-carbamoyl-DL-aspartate] : 55.94 ± 0.37^b g
